Listed below: percent inhibition of human Factor XI mRNA values for each entry.
- Tested on: human Factor XI mRNA
- Protocol: Dose-dependent inhibition in HepG2 cells, electroporation (Example 5)
- Type: cell-based
- Condition Description: 625 nM, approx. 16 h, relative to untreated control cells
Experimental Endpoint: percent inhibition of human Factor XI mRNA (%)

- Substance: "416925 (antisense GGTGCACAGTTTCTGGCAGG; 3-14-3 chimeric gapmer, wing sugar chemistry not given here, further chemistry not given here) [compound 416925]"
  Measurement Units: "%"
  Experimental Result: 64
- Substance: "416864 (antisense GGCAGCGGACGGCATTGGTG; 5-10-5 gapmer, wing sugar chemistry not given here, further chemistry not given here) [compound 416864]"
  Measurement Units: "%"
  Experimental Result: 45
- Substance: "416826 (antisense ATGCCCTTCATGTCTAGGTC; 5-10-5 gapmer, wing sugar chemistry not given here, further chemistry not given here) [compound 416826]"
  Measurement Units: "%"
  Experimental Result: 67
- Substance: "416858 (antisense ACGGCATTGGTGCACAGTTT; 5-10-5 gapmer, wing sugar chemistry not given here, further chemistry not given here) [compound 416858]"
  Measurement Units: "%"
  Experimental Result: 65
- Substance: "417003 (antisense TGGTGCACAGTTTCTGGCAG; 2-13-5 gapmer, wing sugar chemistry not given here, further chemistry not given here) [compound 417003]"
  Measurement Units: "%"
  Experimental Result: 60
- Substance: "416825 (antisense GCCCTTCATGTCTAGGTCCA; 5-10-5 gapmer, wing sugar chemistry not given here, further chemistry not given here) [compound 416825]"
  Measurement Units: "%"
  Experimental Result: 69
